Catalogue of binders with associated pEC50
# Test system: T1, human TIGIT expressed on cells (human, UniProt Q495A1 22-244)
# T1 construct: whole, on cells; on Jurkat E6.1 cells transduced with human TIGIT, on Promega TIGIT Effector cells or on human primary T cells; the assay field says which; also called hTIGIT; Jurkat-hTIGIT
# T1 sequence (looked up): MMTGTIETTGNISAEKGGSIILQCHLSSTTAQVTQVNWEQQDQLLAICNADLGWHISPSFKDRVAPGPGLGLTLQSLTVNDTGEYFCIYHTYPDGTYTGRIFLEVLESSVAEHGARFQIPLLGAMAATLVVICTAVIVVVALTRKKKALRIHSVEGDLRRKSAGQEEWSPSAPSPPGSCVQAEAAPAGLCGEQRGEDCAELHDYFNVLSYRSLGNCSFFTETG
# Test method notes: flow cytometry on Jurkat-hTIGIT
The scale used: pEC50 is minus the common logarithm of the concentration in molar units.

# Binder, pEC50
data = [
    ("22G2 (comparative anti-TIGIT antibody, human IgG1) (antibody, V domains shown, from WO2016/106302; made in HEK cells as human IgG1) VH: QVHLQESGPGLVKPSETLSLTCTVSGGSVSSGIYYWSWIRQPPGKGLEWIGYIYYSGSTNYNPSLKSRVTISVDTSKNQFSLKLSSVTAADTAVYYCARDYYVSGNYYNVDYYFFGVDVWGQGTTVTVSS VL: EIVLTQSPATLSLSPGERATLSCRASQSVSSYLAWYQQKPGQAPRLLIYDASNRATGIPARFSGSGSGTDFTLTISSLEPEDFAVYYCQQRSNWPPLFTFGPGTKVDIK", 9.49),
    ("313M32 (comparative anti-TIGIT antibody, human IgG1) (antibody, V domains shown, from WO2016/191643; made in HEK cells as human IgG1; the VL as printed ends at ...TFG (FR4 not complete); also called 313M2) VH: QVQLQESGPGLVKPSETLSLTCAVSGYSITSDYAWNWIRQPPGKGLEWIGYISYSGSTSYNPSLRSRVTISRDTSKNQFFLKLSSVTAADTAVYYCARRQVGLGFAYWGQGTLVTVSS VL: DIQMTQSPSSLSASVGDRVTITCKASQDVSTAVAWYQQKPGKAPKLLIYSASYRYTGVPSRFSGSGSGTDFTFTISSLQPEDIATYYCQQHYSTPWTFG", 9.36),
    ("31C6 (MEB125.31C6.A1.205 VH4/VL1; comparative anti-TIGIT antibody, human IgG1) (antibody, V domains shown, from WO2016/028656; made in HEK cells as human IgG1; also called 3106 (as the text prints it)) VH: EVQLVQSGAEVKKPGASVKVSCKASGYTFSSYVMHWVRQAPGQGLEWIGYIDPYNDGAKYAQKFQGRVTLTSDKSTSTVYMELSSLRSEDTAVYYCARGGPYGWYFDVWGQGTTVTVSS VL: DIQMTQSPSSLSASVGDRVTITCRASEHIYSYLSWYQQKPGKAPKLLIYNAKTLAEGVPSRFSGSGSGTDFTLTISSLQPEDFATYYCQHHFGSPLTFGQGTRLEIK", 9.89),
]

Now look at this entry.
Please indicate pEC50 recorded for TIG1 (comparative anti-TIGIT antibody, human IgG1) (antibody, V domains shown, from WO2017/152088; made in HEK cells as human IgG1) VH: DVQLVESGGGLVQPGGSRKLSCAASGFTFSNFGMHWVRQAPEKGLEWVAFISSGSSSIYYADTVKGRFTISRDNPKNTLFLQMTSLRSEDTAMYYCARMRLDYYAMDYWGQGTSVTVSS VL: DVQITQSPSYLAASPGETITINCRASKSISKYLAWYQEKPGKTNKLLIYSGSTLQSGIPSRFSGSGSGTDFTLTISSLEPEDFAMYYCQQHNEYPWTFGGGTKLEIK
9.77
